# test-system: T1, human recombinant LTBR fused on human Fc (SinoBiological, cat. #10581-H02H) (human, UniProt P36941 31-227)
# T1 construct: bought protein; also called human LTBR human IgG1 Fc chimera protein; not shown: human IgG1 Fc
# T1 sequence (P36941 31-227 limits assumed): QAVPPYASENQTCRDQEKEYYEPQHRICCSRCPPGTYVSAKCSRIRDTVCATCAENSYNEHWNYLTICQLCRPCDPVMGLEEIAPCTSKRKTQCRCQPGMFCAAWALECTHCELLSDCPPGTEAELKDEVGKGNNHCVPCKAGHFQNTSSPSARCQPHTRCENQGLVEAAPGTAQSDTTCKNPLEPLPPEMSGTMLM
# assay-name: SPR (Biacore T200), LTBR-Fc on CM5 chip, periplasmic extract as analyte
Provide the reported koff of each item.
One number for each entry, in s⁻¹.

Record excerpt, results attached:
Clone 1.4 (VHH, not shown: small tags and cut ends, monovalent anti-LTBR VHH; also called 1.4 (parental clone for 1.6)) VHH: EVQLVESGGGLVQPGGSLRLSCKASGTTFSDRAFGWYRQAPGKQRELVATISTAGLTWYDVSVKGRFIISRDNPENTVYLQMNSLRPEDTAVYYCNTFRGNWGQGTLVTVSS ... 0.0018
Clone 1.1 (VHH, not shown: small tags and cut ends, monovalent anti-LTBR VHH; also called 1.1 (parental clone for 1.7)) VHH: EVQLVESGGGLVQPGGSLRLSCAASGRFFGIYDMYWYRQPPGKQRELVAISTSGGHTNYADSVKGRFTISRDNAKNTVYLQMNSLRPEDTAVYYCNIQRVDAPGMYWGQGTLVTV ... 0.0008
Clone 1.2 (VHH, not shown: small tags and cut ends, monovalent anti-LTBR VHH; also called 1.2 (parental clone for 1.5)) VHH: EVQLVESGGGLVQPGGSLRLSCAASGSSIFSFEIMAWYRQAPGKQRELVAVINKGGEANYPDSVEGRFTISRDNAKNTVYLQMNSLRPEDTAVYYCNADAVPHGSYWGQGTLVTVSS ... 0.00069

Proceed to the following item.
Challenge: Returns the measured koff for the input binder. Input: Clone 1.3 (VHH, not shown: small tags and cut ends, monovalent anti-LTBR VHH; also called 1.3 (parental clone for 1.8)) VHH: EVQLVESGGGLVQPGGSLRLSCAASGRTFTNYRMAWFRQAPGKEREAVAAINWNGGGTYYADSVKGRFTISRDNAKNTVYLQMNSLRPEDTAVYYCAADSTGWGSYFDYWGQGTLVTVSS
Response given: 0.0038

Data origin: patent US20260176336A1
